Non-standard residues stand in square brackets, D forms with d. Residues, ends and D or L forms follow the SMILES beside them. *: point of attachment. X1 = O=C(CCCC[C@@H]1SC[C@@H]2NC(=O)N[C@@H]21)NCCCOCCOCCOCCCN*; PEG12 = NCCOCCOCCOCCOCCOCCOCCOCCOCCOCCOCCOCCOCCC(=O)O
Parameter measured: stable in human serum for

stable in human serum for reading for CC(=O)N[C@@H](Cc1ccccc1)C(=O)N[C@@H](Cc1c[nH]cn1)C(=O)N[C@@H](C)C(=O)N[C@H](C(=O)N1CCC[C@H]1C(=O)N[C@@H](CCC(N)=O)C(=O)N[C@@H](CO)C(=O)N[C@@H](Cc1ccccc1)C(=O)N[C@@H](Cc1ccc(O)cc1)C(=O)N[C@H](C(=O)NCCOCCOCCOCCOCCOCCOCCOCCOCCOCCOCCOCCOCCC(=O)N[C@@H](CCC(=O)NCCCOCCOCCOCCCNC(=O)CCCC[C@@H]1SC[C@@H]2NC(=O)N[C@@H]21)C(N)=O)[C@@H](C)O)C(C)C [MGS4_V8] (Ac-FHAVPQSFYT[PEG12]E(X1)-NH2) : > 48 h
